# assay-text: chemical genetic growth profiling, strain panel (AID 1159580);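 further: tested at 20 µM; growth read once vehicle control cultures reached saturation at 30 °C; 1 = growth at the plate median or of vehicle wells; lower values mean less growth of the strain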
# particulars: S. cerevisiae deletion strains, growth OD, locus YGL227W, strain vid30
Among all 5,500 compounds or so, about 2,000 (36%) were called active. Inconclusive results (about 18%) are left out. No stated cut-off is given here; in the data, active means normalized growth mostly below about 0.91 (no sharp cut-off); inconclusive means no clear call, values can overlap the other calls; inactive means mostly above about 0.92. The list shows a part of the results.
Respond using exactly one of the listed classes: 1 for active, 0 for inactive

Answered cases to consult:
CCOc1ccc(Cc2nccc3cc(OCC)c(OCC)cc23)cc1OCC	0
Nc1ncnc2nc[nH]c12	0

Enquiry: Kindly provide the recorded test outcome for the following molecule: C=C1CC2C(CCC3(C)C(=O)CCC23)C2(C)C=CC(=O)C=C12 (stereo unspecified)
Return: 1

Enquiry: Kindly provide the recorded test outcome for the following molecule: "C[C@H]1C(=O)O[C@@H]2CCN3CC=C(COC(=O)[C@](C)(O)[C@]1(C)O)[C@H]23"
Return: 0

Enquiry: Kindly provide the recorded test outcome for the following molecule: "COc1cc2ccc(=O)oc2c(OC)c1OC"
Return: 0

Enquiry: Kindly provide the recorded test outcome for the following molecule: "COc1ccc2ccc(=O)oc2c1CC=C(C)C"
Return: 1

----------
Assign normalized growth to each entry below.
# assay-text: chemical genetic growth profiling, strain panel (AID 1159580);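 further: tested at 20 µM; growth read once vehicle control cultures reached saturation at 30 °C; 1 = growth at the plate median or of vehicle wells; lower values mean less growth of the strain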
# particulars: S. cerevisiae deletion strains, growth OD, locus YER167W, strain BCK2, active compounds read low
The campaign covered roughly 5,500 compounds. About 2,000 (36%) were called active. About 18% were inconclusive and are not listed. The list shows a part of the results.

Known normalized growth results, listed for orientation:
C[C@]12CCC3C(CC[C@H]4C[C@@H](O)CC[C@]34C)C1CCC2=O (some centres not stated)	0.872 (active)
Nc1ncnc2c1ncn2[C@@H]1O[C@H](CO)[C@@H](O)[C@@H]1O	1.01 (inactive)
CCCCC/C=C\C/C=C\C/C=C\C/C=C\CCCC(=O)O	0.945 (inactive)
CCN(CC)CCNC(=O)COc1ccc(OC)cc1	1.01 (inactive)
Cn1c(=O)[nH]c(=O)c2[nH]cnc21	0.975 (inactive)
Cn1nnnc1SCC1=C(C(=O)O)N2C(=O)C(NC(=O)C(OC=O)c3ccccc3)C2SC1 (configuration not stated)	1 (inactive)
COC(=O)C[C@H]1C(C)(C)[C@@H](OC(C)=O)[C@@H]2CC3C4CC(=O)O[C@@H](c5ccoc5)[C@]4(C)CCC3[C@@]1(C)C2=O (some centres not stated)	0.996 (inactive)
Nc1ncnc2nc[nH]c12	1.01 (inactive)
COc1cc2ccc(=O)oc2cc1O	0.984 (inactive)
O=C(O)c1cc2cc(Cl)ccc2[nH]1	1.01 (inactive)

Would you mind giving normalized growth for every compound in the list below?
1. COc1c(O)cc(O)cc1O
2. CC(C)=CCOc1c2occc2cc2ccc(=O)oc12

Return:
1: 1 (inactive); 2: 0.722 (active)

----------
Assign normalized growth to each entry below.
# assay-text: chemical genetic growth profiling, strain panel (AID 1159580);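 further: tested at 20 µM; growth read once vehicle control cultures reached saturation at 30 °C; 1 = growth at the plate median or of vehicle wells; lower values mean less growth of the strain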
# particulars: S. cerevisiae deletion strains, growth OD, locus YKL009W, strain mrt4, active compounds read low
The whole screen tested about 5,500 compounds, of which about 2,000 (36%) were called active. Roughly 18% stayed inconclusive and do not appear here. The list shows a part of the results.
One number for each entry.

Known normalized growth results, listed for orientation:
O=c1[nH]cnc2nc[nH]c12	0.974
C[C@]12C=CC(=O)C=C1CCC1C2C(=O)C[C@@]2(C)C1CC[C@]2(O)C(=O)CO (some centres undefined)	0.979
C[C@]12C=CC(=O)C=C1CCC1C2CC[C@]2(C)C(=O)CCC12 (some centres undefined)	1

Would you mind giving normalized growth for every compound in the list below?
1. c1ccc2c(c1)[nH]c1cnccc12
2. Cn1c([N+](=O)[O-])cnc1COC(N)=O

Return:
1. 1.01
2. 1.01

Would you mind giving normalized growth for every compound in the list below?
1. CCCCCN=C(N)N/N=C\c1c[nH]c2ccc(OC)cc12
2. CN(C)c1nc(N(C)C)nc(N(C)C)n1
3. C[N+]1(C)C2CC[C@H]1CC(OC(=O)C(O)c1ccccc1)C2 (some centres undefined)

Return:
[0.974, 1, 1.01]

Enquiry: Could you share which normalized growth value was measured for CN1Cc2c(N)cccc2C(c2ccccc2)C1 (centres undefined) ?
Return: 1
